Source listed as PubChem BioAssay AID1963851.

# Tested on: 188146-221-R-J1-PDC complex spheroid viability
# ASSAY OVERVIEW: Anticancer human tumor 188146-221-R-J1-PDC patient-derived colon adenocarcinoma cell line growth inhibition [POLQ]
# CONDITION SET: second compound 0.0316 µM; first compound 0.0316 µM; stronger effect = lower value
MEASURED PARAMETER: viability, T/C (%)
Give the value, in units of %, as a plain number.

O=c1[nH]cc(F)c(=O)[nH]1 + Nc1ccc(C#CCN(C(=O)Cc2ncc(C(F)(F)F)cc2C(F)(F)F)c2ccc(F)cc2)nn1	116
CC(C)n1c(=O)n(C)c2cnc3cc(F)c(-c4ccc(OCCCN5CCCCC5)nc4)cc3c21 + Nc1ccc(C#CCN(C(=O)Cc2ncc(C(F)(F)F)cc2C(F)(F)F)c2ccc(F)cc2)nn1	87.3

Below: the item to evaluate.
Query string: // viability, T/C lookup, key: O=C(c1cc(Cc2n[nH]c(=O)c3ccccc23)ccc1F)N1CCN(C(=O)C2CC2)CC1 + Nc1ccc(C#CCN(C(=O)Cc2ncc(C(F)(F)F)cc2C(F)(F)F)c2ccc(F)cc2)nn1
Result string: 99.7

====

# System: 188146-221-R-J1-PDC complex spheroid viability
# ASSAY OVERVIEW: Anticancer human tumor 188146-221-R-J1-PDC cell line growth inhibition [POLQ];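 also: spheroids exposed to compounds for seven days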;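 as to viability, T/C: 100% = DMSO vehicle control viability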
# CONDITION SET: second compound 1 µM; first compound 0.0316 µM; stronger effect = lower value
Measured viability, T/C accompanies every entry in the list below.
Give the value, in units of %, as a plain number.

C=CCn1c(=O)c2cnc(Nc3ccc(N4CCN(C)CC4)cc3)nc2n1-c1cccc(C(C)(C)O)n1 + Cc1cccc(N(C)C(=O)C2C(O)CCN2c2nc(C)cc(C(F)(F)F)c2C#N)c1	105
COc1cc(C2c3cc4c(cc3C(OC3OC5COC(C)OC5C(O)C3O)C3COC(=O)C23)OCO4)cc(OC)c1O (stereo not given) + Nc1ccc(C#CCN(C(=O)Cc2ncc(C(F)(F)F)cc2C(F)(F)F)c2ccc(F)cc2)nn1	97.5
O=c1[nH]cc(F)c(=O)[nH]1 + Cc1cccc(N(C)C(=O)C2C(O)CCN2c2nc(C)cc(C(F)(F)F)c2C#N)c1	79.8
C#Cc1c(F)ccc2cc(O)cc(-c3ncc4c(N5CC6CCC(C5)N6)nc(OCC56CCCN5CC(F)C6)nc4c3F)c12 (stereo not given) + COC1C(OC(N)=O)C(O)C(Oc2ccc3c(O)c(NC(=O)c4ccc(O)c(CC=C(C)C)c4)c(=O)oc3c2C)OC1(C)C	112

Query string: // lookup viability, T/C | system=188146-221-R-J1-PDC complex spheroid viability | key= C=CCn1c(=O)c2cnc(Nc3ccc(N4CCN(C)CC4)cc3)nc2n1-c1cccc(C(C)(C)O)n1 + Nc1ccc(C#CCN(C(=O)Cc2ncc(C(F)(F)F)cc2C(F)(F)F)c2ccc(F)cc2)nn1
Result string: 100

====

Measured IC50 accompanies every entry in the list below.
# System: 188146-221-R-J1-PDC complex spheroid viability
# ASSAY OVERVIEW: Anticancer human tumor 188146-221-R-J1-PDC cell line growth inhibition [POLQ];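 also: spheroids exposed to compounds for seven days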
# CONDITION SET: curve of first compound; second compound 3.16 µM

Previously resolved entries follow.
CCc1cc2c(N3CCc4c(cc(Cn5ccnc5)cc4-c4cn(C)nc4C(F)(F)F)C3=O)cc(C)nc2c(OC)n1 + Nc1ccc(C#CCN(C(=O)Cc2ncc(C(F)(F)F)cc2C(F)(F)F)c2ccc(F)cc2)nn1	7.01 µM
C=CCn1c(=O)c2cnc(Nc3ccc(N4CCN(C)CC4)cc3)nc2n1-c1cccc(C(C)(C)O)n1 + Nc1ccc(C#CCN(C(=O)Cc2ncc(C(F)(F)F)cc2C(F)(F)F)c2ccc(F)cc2)nn1	> 1 µM
O=C(c1cc(Cc2n[nH]c(=O)c3ccccc23)ccc1F)N1CCN(C(=O)C2CC2)CC1 + Cc1cccc(N(C)C(=O)C2C(O)CCN2c2nc(C)cc(C(F)(F)F)c2C#N)c1	> 10 µM
O=C(Nc1ccc(O)c(NS(=O)(=O)c2ccc(F)cc2)c1)c1ccc(-c2ccccc2)cc1 + Cc1cccc(N(C)C(=O)C2C(O)CCN2c2nc(C)cc(C(F)(F)F)c2C#N)c1	> 10 µM
CC[C@@]1(O)C(=O)OCc2c1cc1n(c2=O)Cc2cc3c(CN(C)C)c(O)ccc3nc2-1 + COC1C(OC(N)=O)C(O)C(Oc2ccc3c(O)c(NC(=O)c4ccc(O)c(CC=C(C)C)c4)c(=O)oc3c2C)OC1(C)C	> 0.1 µM

Query string: // IC50 lookup, key: C=CC(=O)N1CCN(c2nc(=O)n(-c3c(C)ccnc3C(C)C)c3nc(-c4c(O)cccc4F)c(F)cc23)C(C)C1 (stereo not given) + Nc1ccc(C#CCN(C(=O)Cc2ncc(C(F)(F)F)cc2C(F)(F)F)c2ccc(F)cc2)nn1
Result string: > 10 µM

Query string: // IC50 lookup, key: COc1cccc2c1C(=O)c1c(O)c3c(c(O)c1C2=O)CC(O)(C(=O)CO)CC3OC1CC(N)C(O)C(C)O1 (stereo not given) + COC1C(OC(N)=O)C(O)C(Oc2ccc3c(O)c(NC(=O)c4ccc(O)c(CC=C(C)C)c4)c(=O)oc3c2C)OC1(C)C
Result string: 0.106 µM

Query string: // IC50 lookup, key: CNCc1ccc(-c2[nH]c3cc(F)cc4c3c2CCNC4=O)cc1 + COC1C(OC(N)=O)C(O)C(Oc2ccc3c(O)c(NC(=O)c4ccc(O)c(CC=C(C)C)c4)c(=O)oc3c2C)OC1(C)C
Result string: > 10 µM

Query string: // IC50 lookup, key: CC1COCCN1c1cc(-c2ccnn2C)c2ccnc(-c3ccn[nH]3)c2n1 (stereo not given) + Nc1ccc(C#CCN(C(=O)Cc2ncc(C(F)(F)F)cc2C(F)(F)F)c2ccc(F)cc2)nn1
Result string: 0.162 µM
